Exercise: state measured BaF3-ROS1-IL3 pIC50 for each of the molecules provided.
Biological target: Ba/F3 cells containing Ros1 wild-type protein (Homo sapiens, UniProt P08922, cells depend on it, form not given)
Construct: The background only speaks of 'a number of different unrelated proteins' and names SLC34A2-ROS1 for HCC78 cells
Sequence (P08922 whole entry, stated change not applied): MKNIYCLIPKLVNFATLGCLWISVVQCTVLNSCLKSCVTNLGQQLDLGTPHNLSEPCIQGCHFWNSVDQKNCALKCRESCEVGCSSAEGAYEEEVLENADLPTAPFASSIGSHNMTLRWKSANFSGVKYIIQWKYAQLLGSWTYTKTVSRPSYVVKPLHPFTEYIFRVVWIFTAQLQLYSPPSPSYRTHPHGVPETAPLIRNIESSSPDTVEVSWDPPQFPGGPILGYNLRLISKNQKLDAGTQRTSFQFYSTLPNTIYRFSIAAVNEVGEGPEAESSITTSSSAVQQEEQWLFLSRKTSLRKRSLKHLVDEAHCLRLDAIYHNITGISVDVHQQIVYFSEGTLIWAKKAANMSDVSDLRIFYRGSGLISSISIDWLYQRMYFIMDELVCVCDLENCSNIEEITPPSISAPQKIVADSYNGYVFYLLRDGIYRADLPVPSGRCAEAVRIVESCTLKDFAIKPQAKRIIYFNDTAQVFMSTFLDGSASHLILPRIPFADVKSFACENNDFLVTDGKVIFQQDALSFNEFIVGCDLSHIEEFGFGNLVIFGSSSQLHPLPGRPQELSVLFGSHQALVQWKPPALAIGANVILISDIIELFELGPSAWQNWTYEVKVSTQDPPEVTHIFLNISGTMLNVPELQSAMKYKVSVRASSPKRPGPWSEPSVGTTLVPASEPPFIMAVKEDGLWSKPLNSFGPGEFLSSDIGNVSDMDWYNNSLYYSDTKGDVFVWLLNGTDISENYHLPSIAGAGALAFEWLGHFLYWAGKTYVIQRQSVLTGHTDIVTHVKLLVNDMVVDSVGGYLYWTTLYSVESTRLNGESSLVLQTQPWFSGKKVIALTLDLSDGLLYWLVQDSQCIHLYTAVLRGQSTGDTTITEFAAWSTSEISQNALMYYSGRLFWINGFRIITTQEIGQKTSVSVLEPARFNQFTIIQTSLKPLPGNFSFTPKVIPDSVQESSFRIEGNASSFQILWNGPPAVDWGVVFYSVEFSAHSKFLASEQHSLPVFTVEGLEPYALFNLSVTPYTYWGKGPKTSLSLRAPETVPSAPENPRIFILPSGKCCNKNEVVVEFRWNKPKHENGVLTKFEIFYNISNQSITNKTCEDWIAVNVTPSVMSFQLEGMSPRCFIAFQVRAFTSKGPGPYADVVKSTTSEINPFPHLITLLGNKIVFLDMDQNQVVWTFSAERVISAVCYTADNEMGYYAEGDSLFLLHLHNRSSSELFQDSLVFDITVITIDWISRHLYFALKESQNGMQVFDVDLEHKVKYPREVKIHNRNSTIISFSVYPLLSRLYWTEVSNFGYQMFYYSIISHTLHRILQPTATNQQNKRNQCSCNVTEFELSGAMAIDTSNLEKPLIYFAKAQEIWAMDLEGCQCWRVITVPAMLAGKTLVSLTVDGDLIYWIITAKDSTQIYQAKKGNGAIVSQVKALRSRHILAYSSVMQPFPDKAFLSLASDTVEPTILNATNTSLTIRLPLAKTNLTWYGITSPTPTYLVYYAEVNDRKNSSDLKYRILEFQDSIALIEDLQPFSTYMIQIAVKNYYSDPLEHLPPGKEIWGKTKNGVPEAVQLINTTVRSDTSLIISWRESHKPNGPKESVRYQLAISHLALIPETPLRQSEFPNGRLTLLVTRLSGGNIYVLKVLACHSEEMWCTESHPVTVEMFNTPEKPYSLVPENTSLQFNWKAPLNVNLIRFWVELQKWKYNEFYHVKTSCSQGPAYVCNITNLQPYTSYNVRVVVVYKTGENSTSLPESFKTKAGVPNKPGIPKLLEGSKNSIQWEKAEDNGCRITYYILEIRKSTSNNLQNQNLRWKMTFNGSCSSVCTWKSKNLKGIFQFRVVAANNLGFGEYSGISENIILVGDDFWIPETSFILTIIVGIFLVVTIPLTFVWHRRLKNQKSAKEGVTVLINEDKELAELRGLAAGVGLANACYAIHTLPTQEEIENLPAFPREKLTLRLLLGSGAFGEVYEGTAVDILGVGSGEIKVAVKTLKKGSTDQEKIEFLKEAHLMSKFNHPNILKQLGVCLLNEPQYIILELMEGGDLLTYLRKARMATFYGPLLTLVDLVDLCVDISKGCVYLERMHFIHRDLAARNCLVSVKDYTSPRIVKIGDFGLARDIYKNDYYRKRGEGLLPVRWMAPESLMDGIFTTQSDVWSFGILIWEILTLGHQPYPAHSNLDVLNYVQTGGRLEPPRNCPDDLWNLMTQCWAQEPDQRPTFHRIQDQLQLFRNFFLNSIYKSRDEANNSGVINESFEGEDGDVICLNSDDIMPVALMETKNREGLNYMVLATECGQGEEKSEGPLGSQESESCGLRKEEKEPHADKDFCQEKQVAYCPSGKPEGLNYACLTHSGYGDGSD
Test: Ba/F3-Ros1 cell proliferation assay, wild-type Ros1
Format: cell-based, murine
Conditions: without IL-3

Guide cases for BaF3-ROS1-IL3 pIC50, answers given:
{"molecule": "CC(C)c1ccc(COc2ccc(-c3c(-c4ccncc4)nn4c3C(=O)N(CC(O)CO)CC4)cc2)cc1 (stereo not shown) [Compound 43]", "test-result": 7.4}
{"molecule": "CC(C)c1ccc(COc2ccc(-c3c(-c4ccncn4)nn4c3CN(CCO)CC4)cc2)cc1", "test-result": 6.5}
{"molecule": "CC(C)c1ccc(COc2ccc(-c3c(-c4ccncc4)nn4c3C(=O)NCC4)cc2)cc1C#N", "test-result": 7.4}
{"molecule": "CC(C)c1ccc(COc2ccc(-c3c(-c4ccncn4)nn4c3C(=O)N(CCOCCO)CC4)cc2)cc1", "test-result": 7.2}
{"molecule": "CC(C)c1ccc(C2COc3cc(-c4c(-c5ccncc5)nn5c4C(=O)NCC5)ccc3O2)cc1 (stereo not shown)", "test-result": 7.8}
{"molecule": "CC(C)c1ccc(COc2ccc(-c3c(-c4ccncc4)nn4c3CN(CCO)CC4)cc2)cc1", "test-result": 6.9}

From here, focus on the item given below.
Query: For the molecule shown here, CC(C)c1ccc(COc2ccc(-c3c(-c4ccncc4)nn4c3C(=O)N(CCNCC(F)(F)F)CC4)cc2)cc1 , give the reported BaF3-ROS1-IL3 pIC50.
Reply: 7.0

---

Biological target: Ros1 enzyme (Homo sapiens, UniProt P08922)
Construct: 0.5 μg/ml Ros1 enzyme
Assay: Ros1 enzymatic assay
Assay type: biochemical
Conditions: Ros1 enzymatic assay; read-out: ROS1 pIC50 (converted)
Procedure: Compounds were spotted onto white 384-well Proxiplate plus plates (Perkin Elmer) to which 5 μl of enzyme mix (0.5 μg/ml Ros1 enzyme, 50 mM Tris-HCl pH7.5, 1 mM EGTA, 10 mM MgCl2, 0.01% Tween-20) and 5 μl of substrate mix (6 μg/ml IRS-Tide [American Peptide Company], 20 μM ATP, 13.33 μCi/ml ATP (adenosine 5′-triphosphate) P^33, 50 mM Tris-HCl pH7.5, 1 mM EGTA (ethylene glycol-bis(2-aminoethylether)-N,N,N′,N′-tetraacetic acid), 10 mM MgCl2, 0.01% Tween-20) were added. […]
readout-kind: IC50 (nM)
Answers are plain numbers, in nM.

{"compound": "O=C1c2c(-c3ccc(OCc4ccc(C5CC5)nc4)cc3F)c(-c3ccncc3)nn2CCN1CC(O)CO (stereo not shown)", "test-result": 63.1}

Go through the items and report each one's IC50.
1. CC(C)c1ccc(COc2ccc(-c3c(-c4ccncc4)nn4c3CN(CCO)CC4)c(F)c2)cc1
2. CC(C)c1ccc(C2CNc3cc(-c4c(-c5ccncc5)nn5c4C(=O)NCC5)cnc3O2)cc1 (stereo not shown)

Reply:
1. 79.4
2. 398

Below is a list of compounds. For each, state its recorded IC50.
1. O=C1NCCn2nc(-c3ccncc3)c(-c3ccc(OCc4ccc(OC(F)F)cc4)cc3)c21
2. CC(C)c1ccc(COc2ccc(-c3c(-c4ccncc4)nn4c3C(=O)N(C)CC4)cc2)cc1CCO

Reply:
1: 158; 2: 10

// batch mode: one IC50 value per listed entry
1. CC(C)c1ccc(C(CN)Oc2ccc(-c3c(-c4ccncc4)nn4c3C(=O)NCC4)cc2)cc1 (stereo not shown)
2. CNCCc1cc(COc2ccc(-c3c(-c4ccncc4)nn4c3C(=O)N(C)CC4)cc2)ccc1C(C)C

Reply:
[3980, 15.8]

meta.source: patent US10280170B2
